Source listed as ChEMBL document CHEMBL3286109.

Test system: Human immunodeficiency virus 1
test method notes: Antiviral activity against HIV-1 Ba-L subtype B infected in human PBMC assessed as reverse transcriptase activity after 6 days by microtiter plate-based assay
Assay type: functional, organism-based
experimental parameters: Human immunodeficiency virus 1, Ba-L subtype B, 144 h
observed property: EC50 (nM)
Answers are plain numbers, in nM.

chem smiles	EC50 (nM)
CCOC(=O)c1cccc(Cn2ccc3ccc(-c4ccc5ccn(Cc6cccc(C(=O)O)c6)c5c4)cc32)c1	410

Kindly consider the entry below.
INPUT: Request the reported EC50 associated with COC(=O)c1cccc(Cn2ccc3ccc(-c4ccc5ccn(Cc6cccc(C(=O)O)c6)c5c4)cc32)c1
OUTPUT: 360

====

test method notes: Cytotoxicity against human MAGI-CCR5 cells assessed as inhibition of cell viability by MTS assay
Type: cell-based
experimental parameters: read-out: TC50 (the source's name)
observed property: CC50

# annotated cases, reported CC50 shown
chem smiles	observed property	value reported
O=C(O)c1cccc(Cn2cnc3ccc(-c4ccc5cc[nH]c5c4)cc32)c1	CC50	> 100 µM
COC(=O)c1cccc(Cn2ccc3ccc(-c4ccc5ccn(Cc6cccc(C(=O)O)c6)c5c4)cc32)c1	CC50	15 µM
COc1cccc(Cn2ccc3ccc(-c4ccc5ncn(Cc6cccc(C(=O)O)c6)c5c4)cc32)c1	CC50	> 100 µM
COc1ccc(Cn2ccc3ccc(-c4ccc5ccn(Cc6cccc(C(=O)O)c6)c5c4)cc32)cc1	CC50	32 µM
O=C(O)c1cccc(Cn2ccc3ccc(-c4ccc5ccn(Cc6ccc(C(F)(F)F)cc6)c5c4)cc32)c1	CC50	52 µM

Below is a list of compounds. For each, state its recorded CC50.
1. O=C(O)c1cccc(Cn2ccc3cc(-c4ccc5ccn(Cc6cccc(C(=O)O)c6)c5c4)ccc32)c1
2. COc1cc(Cn2ccc3ccc(-c4ccc5ccn(Cc6cccc(C(=O)O)c6)c5c4)cc32)cc(OC)c1
3. COc1cccc(Cc2c[nH]c3cc(-c4ccc5c(Cc6cccc(C(=O)O)c6)c[nH]c5c4)ccc23)c1
4. O=C(O)c1cccc(Cn2ccc3ccc(-c4cccc(O)c4)cc32)c1

OUTPUT:
1: > 100 µM; 2: 49 µM; 3: 12 µM; 4: 94 µM

====

test method notes: Therapeutic index, ratio of TC50 for human PBMC to EC50 for HIV-1 92BR014 subtype B infected in human PBMC
experimental parameters: read-out: TI
observed property: selectivity ratio

chem smiles	selectivity ratio
COC(=O)c1cccc(Cn2ccc3ccc(-c4ccc5ccn(Cc6cccc(C(=O)O)c6)c5c4)cc32)c1	25.3

Consider now this further compound.
INPUT: Name the reported selectivity ratio value associated with the compound CCOC(=O)c1cccc(Cn2ccc3ccc(-c4ccc5ccn(Cc6cccc(C(=O)O)c6)c5c4)cc32)c1
OUTPUT: > 116

====

test method notes: Cytotoxicity against human TZM-bl cells assessed as inhibition of cell viability by resazurin assay
experimental parameters: read-out: TC50 (the source's name)
Assign CC50 to each entry below.

Would you please look over these solved cases?
chem smiles	CC50
COc1cccc(Cc2c[nH]c3cc(-c4ccc5c(Cc6cccc(C(=O)O)c6)c[nH]c5c4)ccc23)c1	500 µM
O=C(O)c1cccc(Cn2ccc3cc(-c4ccc5ccn(Cc6cccc(C(=O)O)c6)c5c4)ccc32)c1	> 100 µM

Answer for every listed entry: what is its CC50? The entries follow.
1. COc1cccc(Cn2ccc3ccc(-c4ccc5c(Cc6cccc(C(=O)O)c6)c[nH]c5c4)cc32)c1
2. O=C(O)c1cccc(Cn2cnc3cc(-c4ccc5cc[nH]c5c4)ccc32)c1
3. O=C(O)c1cccc(Cn2ccc3ccc(-c4ccc5ccn(Cc6cccc(C(=O)O)c6)c5c4)cc32)c1
4. O=C(O)c1cccc(Cn2ccc3ccc(-c4ccc5cc[nH]c5c4)cc32)c1
5. O=C(O)c1cccc(Cn2ccc3ccc(-c4ccc5ccn(Cc6ccc(COc7ccccc7)cc6)c5c4)cc32)c1
6. COc1cccc(Cn2ccc3ccc(-c4ccc5ncn(Cc6cccc(C(=O)O)c6)c5c4)cc32)c1
7. O=C(O)c1cccc(Cc2c[nH]c3ccc(-c4ccc5cc[nH]c5c4)cc23)c1

OUTPUT:
1: 57 µM; 2: > 100 µM; 3: > 100 µM; 4: > 100 µM; 5: > 100 µM; 6: > 100 µM; 7: 194 µM
